# Tested on: RXF 393 renal
# protocolNotes: NCI-60 one-dose screen, 48 h (100 = growth as untreated, 0 = no growth, -100 = all killed)
# appliedConditions: 10 µM unless noted
About 83,000 compounds went through this panel and 20% of them were active in at least one assay; those are over-represented in the sample as a whole.
Binary label based on growth with cut-off 60%: below gives YES, not below gives NO.

COc1ccc(/C=C/C(=O)c2ccc(OC)c(S(N)(=O)=O)c2)c(C(F)(F)F)c1: YES
Cc1ccc(C(C(=O)NC2CCCCC2)N(Cc2ccccc2Cl)C(=O)c2ccc(CN3CCOCC3)o2)o1 (configuration not stated): NO
COc1cccc(NC(=O)c2ccc(NC(=O)CCl)s2)c1: YES
CC[C@@]12CC(C(=O)OC)=C3Nc4cc5c(cc4[C@@]34CCN(C[C@H]3O[C@H]31)[C@@H]24)[C@@H]1[C@H](O5)[C@@H](O)[C@@]2(CC)CC(C(=O)OC)=C3Nc4cc(O)ccc4[C@@]34CCN1[C@@H]24: YES
COc1ccc(-c2nc3ccc(-c4nnc(SCc5ccccc5)o4)cc3[nH]2)cc1OC: YES
N#Cc1c(-c2ccc(F)cc2)nc(SCc2ccccc2)nc1N1CCNCC1: YES
Cc1ccc2nc(COc3ccc(C(=O)NNC(=O)Nc4ccc(Cl)c(C(F)(F)F)c4)cc3)[nH]c2c1: YES
CCOc1ccccc1[C@H]1C(C(=O)c2ccc(Cl)cc2)C2(N[C@@H]1c1ccccc1)C(=O)Nc1ccccc12 (some centres not stated): YES
COc1cc(/C=C/C(=O)c2cnn(-c3cc(=O)[nH]c4ccc(C)cc34)c2C)cc(OC)c1OC: YES
COc1ccc(/C=C/c2nc3ccccc3c(=O)n2CC(=O)Nc2ccccc2)cc1: YES
Cc1ccc(C(=O)Nc2cc(-c3ccccc3)cc(C(F)(F)F)c2)cc1C#Cc1cnc2cccnn12: NO
COc1cc(C2CC(c3ccc(S(=O)(=O)NCCNc4nc(N(C)C)nc(N5CCOCC5)n4)cc3)=Nc3c(N)nc(N)nc3N2)cc(OC)c1OC (configuration not stated): NO
CN1CCN(c2ccc3c4c(cccc24)C(=O)N(c2cccc(-c4nn(-c5ccccc5)cc4-c4nc5ccccc5s4)c2)C3=O)CC1: NO
Cc1nc(Nc2ccccn2)sc1C1=NNC(c2ccccc2F)C1 (configuration not stated): NO
Cn1cc(-c2cc3nc(-c4cn(C)c5ncc(Br)cc45)cc(N)n3n2)c2cc(F)ccc21: YES
CN(C)CCOc1ccc(C(=O)C2[C@H](c3ccc(Cl)cc3)[C@@H](c3ccccc3)NC23C(=O)Nc2ccc(Cl)cc23)cc1 (some centres not stated): YES
N#Cc1c(-c2ccc(F)cc2)nc(SCc2ccc(F)cc2)nc1N1CCNCC1: YES

====

Entries and their measured growth follow.
# Tested on: NCI-H322M lung
# protocolNotes: NCI-60 one-dose screen, 48 h (100 = growth as untreated, 0 = no growth, -100 = all killed)
# appliedConditions: 10 µM unless noted
This is part of a sample that, as a whole, favours compounds with a hit. Of some 83,000 tested, about 20% had one in any assay. The source made the active and inactive calls. Rule for the calls: active = growth percent below 10; inactive = the rest.
parameterMeasured: growth

O=C(N/N=C/c1c[nH]c2ccccc12)Nc1ccccc1Cl: 41.7% (inactive)
CCN(C(=O)CN1C(=O)/C(=C/c2ccco2)SC1=S)C1CCS(=O)(=O)C1 (stereo not given): 99.8% (inactive)
CCCCCCCCc1ccc(C(=O)Nc2ccc(C)c(OP(=O)(O)O)c2)cc1: 111% (inactive)
Cc1cc(N=C(N)c2ccccc2)ccc1OCCCCCCCCn1ccnc1: 18.7% (inactive)
O=C1/C(=C/c2cnc(-c3ccccc3)s2)SC(=S)N1Cc1ccc2c(c1)OCO2: 92.2% (inactive)

====

# Tested on: SF-539 CNS
# protocolNotes: NCI-60 one-dose screen, 48 h
# appliedConditions: 10 µM unless noted
The panel holds about 83,000 compounds, 20% with a hit somewhere; the sample as a whole holds those more often. Calls of active or inactive are those of the source. The calls were made as follows: active = growth percent below 10; inactive = the rest.
Outcome codes: 1 for active, 0 for inactive

O=C(c1ccc(O)cc1)C1[C@H](c2ccccc2Br)[C@@H](c2ccccc2)NC12C(=O)Nc1ccccc12 (some centres not stated): 0
Cc1cc(C2(c3cc(C)c(OCC(O)CNc4c(C)n(C)n(-c5ccccc5)c4=O)cc3C(C)C)OC(=O)c3ccccc32)c(C(C)C)cc1OCC(O)CNc1c(C)n(C)n(-c2ccccc2)c1=O (configuration not stated): 0
CCCN(CCC)S(=O)(=O)c1ccc(C(=O)O)cc1.CCCN(CCC)S(=O)(=O)c1ccc(C(=O)O)cc1.[Cl][Pt+2][Cl].[NH2-].[NH2-]: 0
COc1ccc(N=Nc2c(N)nn3c(N)c(C#N)c(-c4ccc(F)cc4)nc23)cc1: 1
Cn1cc(-c2cc3nc(-c4cn(C)c5ncc(Br)cc45)cc(N)n3n2)c2cc(F)ccc21: 1
Cc1ccccc1NC(=O)c1cccc(NC(=O)CCl)c1: 0
C=CC(=O)N1CCN(c2ccc3nc4c(nc3c2C(F)(F)F)C(=O)c2ncccc2C4=O)CC1: 1
Clc1ccc(-c2nc3c4c(-c5ccccc5)c(-c5ccccc5)n(Cc5ccccc5)c4ncn3n2)cc1: 1
O=C1NC(=NC23CC4CC(CC(C4)C2)C3)N/C1=C\c1ccc2ncccc2c1: 1
Cc1ccc(C2CC(c3ccc(S(=O)(=O)NCCNc4nc(N(C)C)nc(N5CCOCC5)n4)cc3)=Nc3c(N)nc(N)nc3N2)cc1 (configuration not stated): 0
O=C(Cn1c(-c2ccccc2)nc2ccccc21)N=Nc1c(O)[nH]c2ccc(Br)cc12: 1
CN1CCN(c2ccc3c4c(cccc24)C(=O)N(c2cccc(-c4nn(-c5ccccc5)cc4-c4nc5ccccc5s4)c2)C3=O)CC1: 0
COc1cc2cc(C(=O)N3C[C@@H](CCl)c4c3cc(OC(=O)N(CCC(=O)N3CCN(C)CC3)[C@H]3CCSSC3)c3ccccc43)[nH]c2c(OC)c1OC: 1
Nc1nn2c(-c3cc4cc(Br)ccc4oc3=O)ccnc2c1N=Nc1ccccc1: 1
CC(C)(C)OC(=O)N1C/C(=C\c2ccc(F)cc2)C(=O)/C(=C/c2ccc(F)cc2)C1: 1
COc1ccc(N=Nc2c(N)nn3c(-c4ccc5c(c4)C=S=C5)ccnc23)cc1: 0
COc1ccc(C(=O)/C=C/c2ccc3c(c2)OCCO3)cc1S(N)(=O)=O: 0

====

# System: SF-295 CNS
# protocolNotes: NCI-60 one-dose screen, 48 h
# appliedConditions: 10 µM unless noted
About 83,000 compounds went through this panel and 20% of them were active in at least one assay; those are over-represented in the sample as a whole. Activity calls are given as the source filed them. How the source made its calls: active means growth percent below 10; inactive means the rest.
Outcome codes: active, inactive

COc1ccc(-c2cc(C(=O)Oc3ccc(C=O)cc3OC)nn2-c2ccc(S(C)(=O)=O)cc2)cc1: inactive
O=C1N/C(=N\c2nccs2)S/C1=C\c1ccc([N+](=O)[O-])cc1: inactive
CC(C)(C)OC(=O)N1CCC2(CC1)Oc1ccccc1[C@H]1CC(c3ccc(Br)cc3)=NN12: inactive
CCC(=O)c1c2c(c3ccc4c5ccccc5ccc4n13)C(=O)c1ccccc1C2=O: inactive
O=C(c1ccc(O)cc1)C1[C@H](c2ccc(Cl)cc2)[C@@H](c2ccccc2)NC12C(=O)Nc1ccccc12 (stereo not given in full): active
O=C(N/N=C/c1c[nH]c2ccccc12)Nc1ccccc1Cl: active
CCN1C(=O)N(CC)C2NNC(Sc3c(C(=O)O)c4ccccc4n(CCC(C)C)c3=O)=NC21 (stereo not given): active
CC1=C(C)C(=O)C(N2CCSCC2)=CC1=O: inactive
COc1ccc(N=Nc2c(N)nn3c(-c4ccc(OC)c(OC)c4)ccnc23)cc1: inactive
O=[N+]([O-])c1cccc(-c2nnc3c(/C=C/c4ccc(F)cc4)nc4ccccc4n23)c1: inactive
O=C(Nc1ccc(F)cc1)Nc1nc2ccc([N+](=O)[O-])cc2s1: active
CC(=O)c1c2c(c3ccc4c5ccccc5ccc4n13)C(=O)c1ccccc1C2=O: inactive
COc1ccc2[nH]c(=O)c(CSc3ccccc3Nc3nccc(-c4ccc(Cl)cc4)n3)cc2c1: inactive
CCOc1ccccc1NC(=O)N/C(N)=N/c1nc2ccccc2s1: active
Cc1cccc(NCC(=O)N2CCN(c3ncnc4c3cnn4-c3ccccc3)CC2)c1: inactive
COc1ccc(-c2nc3ccc(-c4nnc(SCc5ccccc5)o4)cc3[nH]2)cc1OC: inactive
COc1ccc2[nH]cc(-c3cc(N)n4nc(-c5c[nH]c6ccccc56)cc4n3)c2c1: active
NS(=O)(=O)c1ccc(Nc2nc(SCC(=O)c3ccc(F)cc3)nc3ccccc23)cc1: inactive
Nc1nnc(-c2cncc(Br)c2)c(-c2c[nH]c3ccc(Br)cc23)n1: inactive
Cn1cc(-c2cc3nc(-c4c[nH]c5ccccc45)cc(N)n3n2)c2ccccc21: active

====

# Test system: CAKI-1 renal
# protocolNotes: NCI-60 one-dose screen, 48 h (100 = growth as untreated, 0 = no growth, -100 = all killed)
# appliedConditions: 10 µM unless noted
The panel holds about 83,000 compounds, 20% with a hit somewhere; the sample as a whole holds those more often.
parameterMeasured: growth (%)

CCCCCCCCc1ccc(C(=O)Nc2ccc(C)c(OP(=O)(O)O)c2)cc1: 102
COc1cc(/C=C/C(=O)c2ccc(S(=O)(=O)NCCNc3nc(N(C)C)nc(N4CCOCC4)n3)cc2)cc(OC)c1OC: 39.4
O=c1[nH]c2ccccc2cc1COc1ccc(Nc2nccc(-c3ccc(Cl)cc3)n2)cc1: 87.5
Cn1ncc2c(N)nc(Oc3ccccc3-c3ccccc3)nc21: 29
CN(C)c1nc(NCCNS(=O)(=O)c2ccc(C3=Nc4c(N)nc(N)nc4NC(c4ccc(Cl)cc4)C3)cc2)nc(N2CCOCC2)n1 (stereo not given): 41.7
COc1cccc(NC(=O)c2ccc(NC(=O)CCl)s2)c1: 53.8
O=C(Cc1c(-c2cccc([N+](=O)[O-])c2)n(-c2ncnc3c2c(-c2ccccc2)c(-c2ccccc2)n3Cc2ccccc2)[nH]c1=O)c1ccc(Cl)c(Cl)c1: 21.1
O=C1Nc2ccccc2/C1=C\c1ccc(OCC(=O)c2ccc(Br)cc2)cc1: 67.8
Cc1nc(N)ncc1-c1ccc2ncnc(N3CCc4cc(F)c(Cl)cc43)c2c1: 14.1
O=C(NN1C(=O)/C(=C/C=C/c2ccc([N+](=O)[O-])o2)SC1=S)c1ccncc1: -100
Cc1oc(-c2ccccc2)nc1CN[C@@H]1C[C@@H]2C[C@H]([C@H]1C)C2(C)C: 44.5
COc1ccc(NC2=C(I)C(=O)C(C)=C(C)C2=O)cc1: 29.1
Cc1nn(-c2ccccc2)c2nc(C)n(CC(=O)N/N=C/c3ccccc3O)c(=O)c12: 22.6
COC(=O)c1cc(C(=O)C(Br)Br)n2c1ccc1c3ccccc3ccc12: 58.3
Cc1ccc(-c2cc(-c3ccccc3)[nH]c(=O)c2C#N)cc1: 81.9
Fc1ccccc1CNc1nc(SCCN2CCOCC2)nc2c1cnn2CC(Cl)c1ccc(Br)cc1 (stereo not given): 27
CCCCCCCCCCCCCCCCCC(=O)Nc1ccc(OC)cc1: 98
CCCCCCCCCc1ccc(C(=O)Nc2cc(C)ccc2C(=O)OC)cc1: 98.8
COc1ccc2[nH]c(O)c(N=Nc3nc(-c4ccc(Cl)cc4)cs3)c2c1: -37.6
COc1cc(CNC(=O)C[C@H](C)CCC=C(C)C)ccc1OCc1cn(-c2ccccc2F)nn1: 55.1
